Readings of pIC50 for the listed compounds
systemTested: dopamine D4 receptors in cloned human dopamine receptor subtype 4.2 membranes (Homo sapiens, UniProt P21917, DEL271-302)
Sequence (P21917 with tags, fused parts or gaps DEL271-302): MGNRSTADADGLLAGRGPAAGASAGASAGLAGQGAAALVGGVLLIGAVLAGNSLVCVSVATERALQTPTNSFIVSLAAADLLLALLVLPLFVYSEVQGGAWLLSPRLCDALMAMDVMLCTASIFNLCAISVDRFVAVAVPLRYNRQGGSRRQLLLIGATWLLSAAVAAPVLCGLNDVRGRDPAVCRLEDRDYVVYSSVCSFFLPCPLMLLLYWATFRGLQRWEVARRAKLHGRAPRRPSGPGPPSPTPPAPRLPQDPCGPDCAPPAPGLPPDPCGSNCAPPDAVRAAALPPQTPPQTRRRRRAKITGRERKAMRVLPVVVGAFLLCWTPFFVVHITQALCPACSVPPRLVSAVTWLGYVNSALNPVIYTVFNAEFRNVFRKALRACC
assayProtocol: 3H-YM-09151-2 binding (affinity for dopamine D4 receptors)
conditions: 3H-YM-09151-2, cloned human D4.2 membranes; * means that the test result is preliminary; read-out: D4-bind. IC50
pIC50: −log10 of the molar value.

>  <compound>
Clc1ccc2c(C3CCN(CCCCC4CCc5ccccc54)CC3)c[nH]c2c1 (stereo not shown)

>  <pIC50>
7.92

$$$$
>  <compound>
CC(=O)N1CC(CCCN2CC=C(c3c[nH]c4cc(Cl)ccc34)CC2)c2ccccc21 (stereo not shown) [Compound 20k]

>  <pIC50>
8.00

$$$$
>  <compound>
N#Cc1ccc2c(c1)C(CN1CC=C(c3c[nH]c4cc(Cl)ccc34)CC1)CC2 (stereo not shown)

>  <pIC50>
8.17

$$$$
>  <compound>
CC(=O)N1CC(CCN2CCC(c3c[nH]c4cc(Cl)ccc34)CC2)c2ccccc21 (stereo not shown) [Compound 20b]

>  <pIC50>
8.17

$$$$

The reported measurements were obtained from patent US6352988B2.
